system: Jurkat; test: Photocytotoxicity against human Jurkat cells assessed as growth inhibition at 1.25 J/cm'2 irradiation for 30 mins followed by drug treated for 72 hrs by MTT assay; assay type: functional; details: light or radiation study
Known GI50 of a selection of compounds
Note: unit µM is implicit; provide only the numeric part.

Below are worked cases with known answers.
# structure, units of measure, GI50
measured = [
    ("O=c1[nH]c2c(cc1S(=O)(=O)c1ccccc1)CCc1c-2cnn1-c1ccccc1Cl", "µM", 11.3),
    ("COc1nc2c(cc1S(=O)(=O)c1ccccc1)CCc1c-2cnn1-c1ccccc1Cl", "µM", 1.93),
    ("CCOC(=O)c1cc2c(nc1OC)-c1cnn(-c3ccc(Cl)cc3)c1CC2", "µM", 4.47),
]

Prompt line: Which GI50 is reported for this compound? COc1nc2c(cc1S(=O)(=O)c1ccccc1)CCc1c-2cnn1-c1cccc(Cl)c1
Response line: 1.95

Prompt line: Query Cn1c(=O)c(S(=O)(=O)c2ccccc2)cc2ccc3c(cnn3-c3ccc(Cl)cc3)c21 next
Response line: 0.2

Prompt line: Query COc1nc2c(cc1S(=O)(=O)c1ccccc1)CCc1c-2cnn1Cc1ccccc1 next
Response line: 2.48

Prompt line: Query COc1nc2c(cc1S(=O)(=O)c1ccccc1)CCc1c-2cnn1-c1ccc(Cl)cc1 next
Response line: 0.72

Prompt line: Query COc1ccc(-n2ncc3c4nc(OC)c(S(=O)(=O)c5ccccc5)cc4ccc32)cc1 next
Response line: 1.5

Prompt line: Query COc1ccc(-n2ncc3c2ccc2cc(S(=O)(=O)c4ccccc4)c(=O)n(C)c23)cc1 next
Response line: 0.58

Prompt line: Query COc1nc2c(ccc3c2cnn3-c2ccc(Cl)cc2)cc1S(=O)(=O)c1ccccc1 next
Response line: 4.23
